Target: pooled human IgG (human IgG1, 2, 3 and 4)
Observed property: Enzyme Activity Endpoint Assay: Fc (ng/µL)

• PRT-399 (protein) MVTSVWTKGVTPPADFTQGEDVFHAPYVANQGWYDITKTFNGKDDLLCGAATAGNMLHWWFDQNKEYIEAYLKKHPEKQKIMFGDQELLDVRKAINTKGSQKNSELFNYFRDKAFPNLSARRLGVMPDLVLDMFINGYYLNVTKTQTTDVNRTYQEKDKRGGIFDAVFTRGDQSKLLTSRHDFKEKGLKEISDLIKQELTEGKALGLSHTYANVRINHVINLWGADFDSDGNLKAIYVTDSDSNASIGMKKYVVGVNSAGKVAISAKEIKEDNIGAQVLGLFTLSTGQDIWNQTN = 0
